target: PADI4 (Homo sapiens, UniProt Q9UM07); construct: His6; made in house; assay: COLDER inhibition assay, BAEE substrate, with or without 1 h preincubation; assay type: biochemical; details: peptide 0.003 µM, T=1; read-out: PADI4 activity normalised to 0.1% DMSO
Sequence (Q9UM07 whole entry): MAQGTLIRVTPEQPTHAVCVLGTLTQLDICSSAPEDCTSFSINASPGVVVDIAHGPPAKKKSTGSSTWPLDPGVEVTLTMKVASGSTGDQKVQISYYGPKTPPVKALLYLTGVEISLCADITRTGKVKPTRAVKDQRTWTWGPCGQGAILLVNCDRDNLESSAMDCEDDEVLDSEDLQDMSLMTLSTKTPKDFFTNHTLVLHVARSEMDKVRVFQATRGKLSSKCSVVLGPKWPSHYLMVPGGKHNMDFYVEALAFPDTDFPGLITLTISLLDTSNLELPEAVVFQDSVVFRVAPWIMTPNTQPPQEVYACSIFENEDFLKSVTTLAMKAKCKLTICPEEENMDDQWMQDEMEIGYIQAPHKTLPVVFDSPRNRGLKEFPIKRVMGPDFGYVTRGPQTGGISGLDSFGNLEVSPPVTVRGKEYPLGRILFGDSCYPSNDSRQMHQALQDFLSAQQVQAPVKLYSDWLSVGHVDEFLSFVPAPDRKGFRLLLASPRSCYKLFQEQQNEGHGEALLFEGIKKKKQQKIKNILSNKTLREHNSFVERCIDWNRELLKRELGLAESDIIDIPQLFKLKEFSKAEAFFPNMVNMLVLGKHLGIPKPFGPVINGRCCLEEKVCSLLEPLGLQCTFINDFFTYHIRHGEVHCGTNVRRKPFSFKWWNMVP
Where a SMILES comes first, the peptide text is derived from it. Bridges are numbered along the chain shown (N, C = ends). [ ]: non-standard residue; d: D form. Orn(fluoroacetimidoyl) = N=C(CF)NCCC[C@H](N)C(=O)O
Measured remaining activity at 0.003 µM, listed per entry.
observationType: remaining activity at 0.003 µM (%)

{"compound": "CC(C)[C@@H]1NC(=O)[C@@H](Cc2ccc(O)cc2)NC(=O)CSC[C@@H](C(=O)NCC(N)=O)NC(=O)[C@H](Cc2ccc(O)cc2)NC(=O)[C@H](CCCCN)NC(=O)[C@H](Cc2c[nH]c3ccccc23)NC(=O)[C@H](CCC(=O)O)NC(=O)[C@H](CCCCN)NC(=O)[C@H](CCCNC(=N)CF)NC(=O)[C@H](CO)NC(=O)[C@H](Cc2ccc(O)cc2)NC1=O [cP4_7, yVYS(2)KEWKYCG] ({CH2CO}-[dY]VYS[Orn(fluoroacetimidoyl)]KEWKYCG-NH2; thioether N-11)", "targetOrTestSystem": "PADI4 (Homo sapiens, UniProt Q9UM07)", "observationType": "remaining activity at 0.003 µM", "endpointValue": 99.2}
{"compound": "N=C(N)NCCC[C@@H]1NC(=O)[C@H](CCCCN)NC(=O)[C@H](CC(N)=O)NC(=O)[C@H](Cc2ccccc2)NC(=O)[C@H](CC(=O)O)NC(=O)[C@H](Cc2c[nH]c3ccccc23)NC(=O)[C@H](CC(N)=O)NC(=O)[C@H](CCCNC(=N)CF)NC(=O)[C@H](Cc2ccc(O)cc2)NC(=O)[C@H](Cc2c[nH]c3ccccc23)NC(=O)[C@@H](Cc2ccc(O)cc2)NC(=O)CSC[C@@H](C(=O)NCC(N)=O)NC1=O [cP4_10, yWY(2)NWDFNKRCG] ({CH2CO}-[dY]WY[Orn(fluoroacetimidoyl)]NWDFNKRCG-NH2; thioether N-12)", "targetOrTestSystem": "PADI4 (Homo sapiens, UniProt Q9UM07)", "observationType": "remaining activity at 0.003 µM", "endpointValue": 98.1}
{"compound": "CC[C@H](C)[C@H](NC(=O)[C@H](Cc1c[nH]c2ccccc12)NC(=O)[C@H](CCC(=O)O)NC(=O)[C@@H]1CSCC(=O)N[C@H](Cc2ccc(O)cc2)C(=O)N[C@@H](C(C)C)C(=O)N[C@@H](Cc2ccc(O)cc2)C(=O)N[C@@H](CCCNC(=N)CF)C(=O)N[C@@H](CC(=O)O)C(=O)N1)C(=O)N[C@@H](CC(N)=O)C(=O)N[C@@H](CCCNC(=N)N)C(=O)N[C@@H](C)C(=O)NCC(N)=O [cP4_165, yVY(2)DCEWINRAG] ({CH2CO}-[dY]VY[Orn(fluoroacetimidoyl)]DCEWINRAG-NH2; thioether N-6)", "targetOrTestSystem": "PADI4 (Homo sapiens, UniProt Q9UM07)", "observationType": "remaining activity at 0.003 µM", "endpointValue": 95}
{"compound": "CC(C)C[C@@H]1NC(=O)[C@H](CCCCN)NC(=O)[C@H](CO)NC(=O)[C@H](CO)NC(=O)[C@H](Cc2ccc(O)cc2)NC(=O)[C@H](Cc2c[nH]cn2)NC(=O)[C@H](CCCNC(=N)CF)NC(=O)[C@H](CC(=O)O)NC(=O)[C@H](CC(C)C)NC(=O)[C@@H](Cc2ccc(O)cc2)NC(=O)CSC[C@@H](C(=O)NCC(N)=O)NC(=O)[C@H](Cc2ccc(O)cc2)NC1=O [cP4_15, yLD(2)HYSSKLYCG] ({CH2CO}-[dY]LD[Orn(fluoroacetimidoyl)]HYSSKLYCG-NH2; thioether N-12)", "targetOrTestSystem": "PADI4 (Homo sapiens, UniProt Q9UM07)", "observationType": "remaining activity at 0.003 µM", "endpointValue": 87.4}

Ref: paper PMC11659602
